assayed target: von Hippel-Lindau disease tumor suppressor/Androgen receptor (Homo sapiens, UniProt P10275+P40337)
Sequence (P10275 whole entry, looked up): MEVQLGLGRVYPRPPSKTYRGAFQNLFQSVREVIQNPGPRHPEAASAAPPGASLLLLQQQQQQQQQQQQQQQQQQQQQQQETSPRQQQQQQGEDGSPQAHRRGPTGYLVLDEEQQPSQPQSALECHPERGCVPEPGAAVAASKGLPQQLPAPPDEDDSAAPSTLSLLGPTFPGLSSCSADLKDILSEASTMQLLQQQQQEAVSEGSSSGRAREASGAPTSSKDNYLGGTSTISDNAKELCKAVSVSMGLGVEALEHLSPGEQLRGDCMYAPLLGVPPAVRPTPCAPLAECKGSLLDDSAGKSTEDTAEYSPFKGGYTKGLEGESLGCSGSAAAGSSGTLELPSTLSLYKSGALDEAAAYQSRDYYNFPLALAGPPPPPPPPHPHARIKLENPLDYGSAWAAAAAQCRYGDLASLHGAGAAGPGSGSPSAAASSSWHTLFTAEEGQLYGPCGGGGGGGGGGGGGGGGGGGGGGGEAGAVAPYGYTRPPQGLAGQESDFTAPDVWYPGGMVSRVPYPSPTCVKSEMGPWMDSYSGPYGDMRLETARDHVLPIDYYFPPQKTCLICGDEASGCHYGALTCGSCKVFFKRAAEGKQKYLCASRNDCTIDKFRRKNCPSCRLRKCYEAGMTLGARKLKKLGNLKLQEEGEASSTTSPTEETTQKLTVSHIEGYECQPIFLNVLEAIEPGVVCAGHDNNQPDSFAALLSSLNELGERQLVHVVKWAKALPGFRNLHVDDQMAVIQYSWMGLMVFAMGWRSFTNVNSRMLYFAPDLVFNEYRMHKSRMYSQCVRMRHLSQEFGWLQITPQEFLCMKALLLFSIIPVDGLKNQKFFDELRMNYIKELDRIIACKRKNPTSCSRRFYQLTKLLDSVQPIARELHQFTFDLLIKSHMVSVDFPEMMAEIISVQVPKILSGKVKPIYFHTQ
Sequence (P40337 whole entry, looked up): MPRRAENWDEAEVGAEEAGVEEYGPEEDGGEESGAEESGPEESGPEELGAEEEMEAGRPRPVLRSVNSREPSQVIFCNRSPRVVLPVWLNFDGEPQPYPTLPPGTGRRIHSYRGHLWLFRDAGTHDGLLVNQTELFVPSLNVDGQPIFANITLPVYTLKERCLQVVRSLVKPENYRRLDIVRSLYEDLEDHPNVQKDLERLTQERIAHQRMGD
assay notes: Protac activity at VHL/AR in AR-positive human LNCaP cells assessed as induction of androgen receptor degradation at 0.01 uM incubated for 6 hrs by Western blot analysis (reference value: 0%)
Type: cell-based
measured metric: Activity (%)
Value expressed in %; do not type the unit.

[
  {
    "smiles structure": "Cc1ncsc1-c1ccc([C@H](C)NC(=O)[C@@H]2C[C@@H](O)CN2C(=O)[C@@H](NC(=O)CCCN2CCN(c3ccc(C#Cc4ccc(N5C(=S)N(c6ccc(C#N)c(C(F)(F)F)c6)C(=O)C5(C)C)cc4)cn3)CC2)C(C)(C)C)cc1",
    "Activity / %": 37
  }
]

Give Activity for the following compound: Cc1cc([C@H](C(=O)N2C[C@H](O)C[C@H]2C(=O)N[C@@H](CC(=O)N2CCC(N3CCC(C#Cc4ccc(C(=O)N[C@H]5C(C)(C)[C@H](Oc6ccc(C#N)c(Cl)c6)C5(C)C)cc4)CC3)CC2)c2ccc(-c3scnc3C)cc2)C(C)C)on1
76

* * *

assayed target: von Hippel-Lindau disease tumor suppressor/Androgen receptor (Homo sapiens, UniProt P10275+P40337)
assay notes: Protac activity at VHL/AR in AR-positive human LNCaP cells assessed as induction of androgen receptor degradation at 0.01 uM incubated for 6 hrs by Western blot analysis (reference value: 0%)
Assay type: cell-based
measured metric: Activity (%)
Value expressed in %; do not type the unit.

Below: 3 molecules and their reported Activity.
[
  {
    "smiles structure": "Cc1ncsc1-c1ccc([C@H](C)NC(=O)[C@@H]2C[C@@H](O)CN2C(=O)[C@@H](NC(=O)CCN2CCN(c3ccc(C#Cc4ccc(N5C(=S)N(c6ccc(C#N)c(C(F)(F)F)c6)C(=O)C5(C)C)cc4)cn3)CC2)C(C)(C)C)cc1",
    "value": 34
  },
  {
    "smiles structure": "Cc1cc([C@H](C(=O)N2C[C@H](O)C[C@H]2C(=O)N[C@@H](CC(=O)NCCCCCCCCCNC(=O)c2ccc(C(=O)N[C@H]3C(C)(C)[C@H](Oc4ccc(C#N)c(Cl)c4)C3(C)C)cc2)c2ccc(-c3scnc3C)cc2)C(C)C)on1",
    "value": 43
  },
  {
    "smiles structure": "Cc1ncsc1-c1ccc(CNC(=O)[C@@H]2C[C@@H](O)CN2C(=O)[C@@H](NC(=O)CCCCCCCCCCNC(=O)c2ccc(N3C(=S)N(c4ccc(C#N)c(C(F)(F)F)c4)C(=O)C3(C)C)cc2F)C(C)(C)C)cc1",
    "value": 11
  }
]

Please look at the following molecule next.
Give Activity for the following molecule: Cc1cc([C@H](C(=O)N2C[C@H](O)C[C@H]2C(=O)N[C@@H](CC(=O)N2CCC(N3CCC(C#Cc4ccc(N5C(=S)N(c6ccc(C#N)c(C(F)(F)F)c6)C(=O)C5(C)C)cc4)CC3)CC2)c2ccc(-c3scnc3C)cc2)C(C)C)on1
20

* * *

assayed target: von Hippel-Lindau disease tumor suppressor/Androgen receptor (Homo sapiens, UniProt P10275+P40337)
assay notes: Protac activity at VHL/AR in AR-positive human LNCaP cells assessed as induction of androgen receptor degradation at 0.01 uM incubated for 6 hrs by Western blot analysis (reference value: 0%)
Assay type: cell-based
Recorded Activity values for a group of molecules are listed next.
Please answer using the number first and the unit second.

Below: 2 molecules and their reported Activity.
[
  {
    "smiles structure": "Cc1cc([C@H](C(=O)N2C[C@H](O)C[C@H]2C(=O)N[C@@H](CC(=O)NCCCN2CCN(c3ccc(C#Cc4ccc(N5C(=S)N(c6ccc(C#N)c(C(F)(F)F)c6)C(=O)C5(C)C)cc4)cn3)CC2)c2ccc(-c3sncc3C)cc2)C(C)C)on1",
    "Activity": "27%"
  },
  {
    "smiles structure": "Cc1cc([C@H](C(=O)N2C[C@H](O)C[C@H]2C(=O)N[C@@H](CC(=O)N2CCC(N3CCC(C#Cc4ccc(N5C(=S)N(c6cnc(C#N)c(C(F)(F)F)c6)C(=O)C56CCC6)cc4)CC3)CC2)c2ccc(-c3scnc3C)cc2)C(C)C)on1",
    "Activity": "38%"
  }
]

Give Activity for the following molecule: Cc1ncsc1-c1ccc([C@H](CC(=O)N2CCC(N3CCC(C#Cc4ccc(C(=O)N[C@H]5C(C)(C)[C@H](Oc6ccc(C#N)c(Cl)c6)C5(C)C)cc4)CC3)CC2)NC(=O)[C@@H]2C[C@@H](O)CN2C(=O)[C@@H](NC(=O)C2(C#N)CC2)C(C)(C)C)cc1
76%

Give Activity for the following molecule: Cc1ncsc1-c1ccc(CNC(=O)[C@@H]2C[C@@H](O)CN2C(=O)[C@@H](NC(=O)CCCCCCc2ccc(C#Cc3ccc(N4C(=S)N(c5ccc(C#N)c(C(F)(F)F)c5)C(=O)C4(C)C)cc3)cn2)C(C)(C)C)cc1
30%

* * *

Recorded Activity values for a group of molecules are listed next.
assayed target: von Hippel-Lindau disease tumor suppressor/Androgen receptor (Homo sapiens, UniProt P10275+P40337)
assay notes: Protac activity at VHL/AR in AR-positive human LNCaP cells assessed as induction of androgen receptor degradation at 0.1 uM incubated for 6 hrs by Western blot analysis (reference value: 0%)
Type: cell-based
Please answer using the number first and the unit second.

Below: 3 molecules and their reported Activity.
[
  {
    "smiles structure": "Cc1ncsc1-c1ccc([C@H](C)NC(=O)[C@@H]2C[C@@H](O)CN2C(=O)[C@@H](NC(=O)N2CCN(c3ccc(C#Cc4ccc(N5C(=S)N(c6ccc(C#N)c(C(F)(F)F)c6)C(=O)C5(C)C)cc4)cn3)CC2)C(C)(C)C)cc1",
    "value": "0%"
  },
  {
    "smiles structure": "Cc1cc([C@H](C(=O)N2C[C@H](O)C[C@H]2C(=O)N[C@@H](CC(=O)NCCCN2CCN(c3ccc(C#Cc4ccc(N5C(=S)N(c6ccc(C#N)c(C(F)(F)F)c6)C(=O)C5(C)C)cc4)cn3)CC2)c2ccc(-c3sncc3C)cc2)C(C)C)on1",
    "value": "75%"
  },
  {
    "smiles structure": "Cc1ncsc1-c1ccc([C@H](C)NC(=O)[C@@H]2C[C@@H](O)CN2C(=O)[C@@H](NC(=O)CCCCN2CCN(c3ccc(C#Cc4ccc(N5C(=S)N(c6ccc(C#N)c(C(F)(F)F)c6)C(=O)C5(C)C)cc4)cn3)CC2)C(C)(C)C)cc1",
    "value": "48%"
  }
]

Please look at the following molecule next.
Give Activity for the following molecule: Cc1cc([C@H](C(=O)N2C[C@H](O)C[C@H]2C(=O)N[C@@H](CC(=O)NCCCCCCCCCNC(=O)c2ccc(C(=O)N[C@H]3C(C)(C)[C@H](Oc4ccc(C#N)c(Cl)c4)C3(C)C)cc2)c2ccc(-c3scnc3C)cc2)C(C)C)on1
91%

* * *

assayed target: von Hippel-Lindau disease tumor suppressor/Androgen receptor (Homo sapiens, UniProt P10275+P40337)
assay notes: Protac activity at VHL/AR in AR-positive human LNCaP cells assessed as induction of androgen receptor degradation at 0.01 uM incubated for 6 hrs by Western blot analysis (reference value: 0%)
Format: cell-based
measured metric: Activity (%)
Value expressed in %; do not type the unit.

[
  {
    "smiles structure": "Cc1ncsc1-c1ccc([C@H](CC(=O)N2CCC(N3CCC(C#Cc4ccc(C(=O)N[C@H]5C(C)(C)[C@H](Oc6ccc(C#N)c(Cl)c6)C5(C)C)cc4)CC3)CC2)NC(=O)[C@@H]2C[C@@H](O)CN2C(=O)[C@@H](NC(=O)C2(F)CC2)C(C)(C)C)cc1",
    "value": 89
  }
]

Please look at the following molecule next.
Give Activity for the following molecule: CC(=O)N[C@H](C(=O)N1C[C@H](O)C[C@H]1C(=O)N[C@@H](CC(=O)N1CCC(N2CCC(C#Cc3ccc(C(=O)N[C@H]4C(C)(C)[C@H](Oc5ccc(C#N)c(Cl)c5)C4(C)C)cc3)CC2)CC1)c1ccc(-c2scnc2C)cc1)C(C)(C)C
39

* * *

assayed target: von Hippel-Lindau disease tumor suppressor/Androgen receptor (Homo sapiens, UniProt P10275+P40337)
assay notes: Protac activity at VHL/AR in AR-positive human LNCaP cells assessed as induction of androgen receptor degradation at 0.1 uM incubated for 6 hrs by Western blot analysis (reference value: 0%)
Type: cell-based
measured metric: Activity

Below: 2 compounds and their reported Activity.
[
  {
    "smiles structure": "Cc1ncsc1-c1ccc(CNC(=O)[C@@H]2C[C@@H](O)CN2C(=O)[C@@H](NC(=O)CCCCCCc2ccc(C#Cc3ccc(N4C(=S)N(c5ccc(C#N)c(C(F)(F)F)c5)C(=O)C4(C)C)cc3)cn2)C(C)(C)C)cc1",
    "value": "63%"
  },
  {
    "smiles structure": "Cc1ncsc1-c1ccc(CNC(=O)[C@@H]2C[C@@H](O)CN2C(=O)[C@@H](NC(=O)CCCCCCNC(=O)c2ccc(N3C(=S)N(c4ccc(C#N)c(C(F)(F)F)c4)C(=O)C3(C)C)cc2F)C(C)(C)C)cc1",
    "value": "54%"
  }
]

Please look at the following compound next.
Give Activity for the following compound: Cc1ncsc1-c1ccc([C@@H](CC(=O)N2CCC(N3CCC(C#Cc4ccc(C(=O)N[C@H]5C(C)(C)[C@H](Oc6ccc(C#N)c(Cl)c6)C5(C)C)cc4)CC3)CC2)NC(=O)[C@@H]2C[C@@H](O)CN2C(=O)[C@@H](NC(=O)C2(F)CC2)C(C)(C)C)cc1
< 5%
